# targetSystem: T1, biotinylated recombinant human IL-12Rβ2 (human, UniProt Q99665 24-622, random biotinylated)
# T1 construct: Recombinant protein produced in-house; also called hIL-12RB2; human IL-12RB2
# T1 sequence: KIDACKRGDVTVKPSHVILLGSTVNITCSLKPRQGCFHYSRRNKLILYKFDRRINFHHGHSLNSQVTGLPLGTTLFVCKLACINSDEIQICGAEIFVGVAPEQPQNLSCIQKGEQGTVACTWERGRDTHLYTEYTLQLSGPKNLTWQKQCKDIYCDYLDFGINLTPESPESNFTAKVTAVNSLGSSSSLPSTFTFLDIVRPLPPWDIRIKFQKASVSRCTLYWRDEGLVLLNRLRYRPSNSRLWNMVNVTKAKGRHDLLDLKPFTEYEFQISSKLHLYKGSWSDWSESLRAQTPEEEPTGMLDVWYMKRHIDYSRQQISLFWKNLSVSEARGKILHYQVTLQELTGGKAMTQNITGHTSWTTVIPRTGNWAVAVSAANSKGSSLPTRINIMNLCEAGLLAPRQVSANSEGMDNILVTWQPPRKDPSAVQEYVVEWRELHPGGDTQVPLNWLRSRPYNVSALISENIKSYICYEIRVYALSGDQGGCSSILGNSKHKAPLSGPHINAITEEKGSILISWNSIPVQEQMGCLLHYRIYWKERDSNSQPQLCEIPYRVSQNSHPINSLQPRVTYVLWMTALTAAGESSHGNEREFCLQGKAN
# experiment: BLI, P.E., off-rate ranking
Label Fulfilled for high-side Response (at or above 0.4) and Not fulfilled for low-side Response (below it).

>>> assignedlabel("anti-IL-12Rβ2 VHH clone 3CAH60 (clone ID 20361) (VHH, not shown: small tags and cut ends, periplasmic extract) VHH: QVQLQESGGGLVQPGGSLILSCVASGFAMDYLTMGWSREAPRNEREDISCIDTSGRSTDYLDSVKGRFTISRDNAKNTLYLHMNDLKPEDTAEYYCLASTSYCGAGYEYRGQGTQVTVSS")
"Fulfilled"
>>> assignedlabel("anti-IL-12Rβ2 VHH clone 3CRHS54 (clone ID 20422) (VHH, not shown: small tags and cut ends, periplasmic extract) VHH: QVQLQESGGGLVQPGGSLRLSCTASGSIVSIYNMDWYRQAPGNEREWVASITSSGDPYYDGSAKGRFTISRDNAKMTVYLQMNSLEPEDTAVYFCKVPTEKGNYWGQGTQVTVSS")
"Not fulfilled"
>>> assignedlabel("anti-IL-12Rβ2 VHH clone 3CRHS3 (clone ID 20414) (VHH, not shown: small tags and cut ends, periplasmic extract) VHH: QVQLQESGGGLVQPGGSLRLSCTASGSIFSIYNMDWYRQAPGNQREWVASITSSGDPYYDASVKGRFTISRDSAKMTVYLQMNSLKPEDTAVYYCKLPTEKGNYWGQGTQVTVSS")
"Not fulfilled"

Determine whether this binder has Response no lower than 0.4: anti-IL-12Rβ2 VHH clone 3CRHS148 (clone ID 20436) (VHH, not shown: small tags and cut ends, periplasmic extract) VHH: QVQLQESGGGLVQPGGSLRLSCIASGSIFSIYNMDWYRQAPGNQREWVASITPSGDPYYDDSAKGRFTISRDNAKMTVYLQMNSLKPEDTAVYYCKVPTEKGNYWGQGTQVTVSS Not fulfilled

Does Response meet or surpass 0.4 for anti-IL-12Rβ2 VHH clone 2CRH60 (clone ID 20367) (VHH, not shown: small tags and cut ends, periplasmic extract) VHH: QVQLQESGGGSVQPGGSLRLTCAASGFTFSTSGMHWFRQAPGKGLEWVSSISSGGGDTYYTDSVKGRITISRDNAKNTLYLQLNDLKSEDTAVYYCSKDPSGATRGQGTQVTVSS ? Fulfilled
